These data points were gathered from patent US12503436B2.

Catalogue of pEC50 readings, one per entry.
TESTED_SYSTEM: STING (Homo sapiens, UniProt Q86WV6, G230A/H232R/R293Q/R71H)
Sequence (Q86WV6 whole entry R71H/G230A/H232R/R293Q): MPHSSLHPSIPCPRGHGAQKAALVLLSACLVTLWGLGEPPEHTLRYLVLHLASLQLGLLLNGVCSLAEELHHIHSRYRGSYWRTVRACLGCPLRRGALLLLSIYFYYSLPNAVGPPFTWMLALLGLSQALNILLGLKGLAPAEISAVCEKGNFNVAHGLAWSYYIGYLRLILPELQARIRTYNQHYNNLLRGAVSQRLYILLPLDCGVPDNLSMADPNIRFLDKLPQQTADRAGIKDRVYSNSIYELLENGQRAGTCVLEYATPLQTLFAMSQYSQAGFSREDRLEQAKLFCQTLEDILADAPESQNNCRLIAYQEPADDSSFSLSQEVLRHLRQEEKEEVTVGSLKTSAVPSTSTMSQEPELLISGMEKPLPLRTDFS
EXPERIMENT_DESCRIPTION: STING reporter assay in THP1-Dual KO-IFNAR2 cells (2′3′cGAMP stimulation, luciferase reporter)
Format: cell-based
ASSAY_CONTEXT: 15 μM 2′3′cGAMP stimulation, 24 h, read-out: Pharmaron, THP1_IFNAR2 STING 24 h Luci Normalized: GeoMean EC50
Protocol: STING pathway activation by the compounds described herein was measured using THP1-Dual™ cells (KO-IFNAR2). […] 2 mL of solution A and 2 ml Solution B was mixed and incubated for 20 min at room temperature (RT). […] Luciferase reporter activity was then measured. EC50 values were calculated by using standard methods known in the art. […] Luciferase reporter activity was then measured. EC50 values were calculated by using standard methods known in the art.
pEC50: −log10 of the molar value.

CC(=O)Nc1c[nH]c2ccc(CCNc3ccc(C(F)(F)F)cn3)cc12 [Compound 199]    5.30 to 6.00
CC(=O)Nc1c[nH]c2ccc(OCC[C@@H]3C[C@@H]4CN(CC(F)(F)F)C[C@@H]4C3)cc12 [Compound 283]    6.00 to 6.70
CC(=O)Nc1c[nH]c2ccc(CCOc3ccnc(OC(F)F)c3)cc12 [Compound 491]    6.00 to 6.70

### Prompt Give pEC50 for the following compound: O=C(Nc1c[nH]c2ccc(OCc3ccc(C(F)(F)F)cc3)cc12)C1CC(CO)C1 (centres unmarked) [Compound 153]
### Response 6.00 to 6.70

### Prompt Give pEC50 for the following compound: N#CC1CCC1C(=O)Nc1c[nH]c2ccc(CCOc3ccc(C(F)(F)F)cc3)cc12 (centres unmarked) [Compound 390]
### Response 6.00 to 6.70

### Prompt Give pEC50 for the following compound: CC(=O)Nc1c[nH]c2ccc(CCOc3cccnc3)cc12 [Compound 581]
### Response 4.00 to 5.30

### Prompt Give pEC50 for the following compound: CC(=O)Nc1c[nH]c2c(C)cc(CCOc3ccc(C(F)(F)F)cc3)nc12 [Compound 259]
### Response 5.30 to 6.00

### Prompt Give pEC50 for the following compound: CC(=O)Nc1c[nH]c2ccc(CCOC3CCN(CC(F)(F)F)CC3)cc12 [Compound 288]
### Response 4.00 to 5.30
